Entry source: PubChem BioAssay AID2060890

System: LG0703-F948-PDC complex spheroid viability
Measurement Protocol: Anticancer human tumor LG0703-F948-PDC patient-derived lung adenocarcinoma cell line growth inhibition [RAS]
Settings: second compound 1 µM; first compound 3.16 µM; stronger effect = lower value

| Compound | Study Target | Unit Label | viability, T/C |
| --- | --- | --- | --- |
| C[C@@H](NC(=O)c1ncnc(N)c1Cl)c1ncc(C(=O)Nc2cc(C(F)(F)F)c(Cl)cn2)s1 + C=CC(=O)N1CCN(c2nc(OCC3CCCN3C)nc3c(F)c(-c4nc(N)cc(C)c4C(F)(F)F)c(Cl)cc23)C(C)C1 | LG0703-F948-PDC complex spheroid viability | % | 129 |
| CC1(O)CCCC1n1c(=O)c(C(F)F)cc2cnc(NC3CCN(S(C)(=O)=O)CC3)nc21 (configuration not stated) + C=CC(=O)N1CCN(c2nc(OCC3CCCN3C)nc3c(F)c(-c4nc(N)cc(C)c4C(F)(F)F)c(Cl)cc23)C(C)C1 | LG0703-F948-PDC complex spheroid viability | % | 74.9 |
| CC(=O)OC12COC1CC(O)C1(C)C(=O)C(O)C3=C(C)C(OC(=O)C(O)C(NC(=O)OC(C)(C)C)c4ccccc4)CC(O)(C(OC(=O)c4ccccc4)C21)C3(C)C (configuration not stated) + C=CC(=O)N1CCN(c2nc(OCC3CCCN3C)nc3c(F)c(-c4nc(N)cc(C)c4C(F)(F)F)c(Cl)cc23)C(C)C1 | LG0703-F948-PDC complex spheroid viability | % | 33.5 |
| C[C@@H](NC(=O)c1ncnc(N)c1Cl)c1ncc(C(=O)Nc2cc(C(F)(F)F)c(Cl)cn2)s1 + C#Cc1c(F)ccc2cc(O)cc(-c3ncc4c(N5CC6CCC(C5)N6)nc(OCC56CCCN5CC(F)C6)nc4c3F)c12 | LG0703-F948-PDC complex spheroid viability | % | 73.5 |
| CC(=O)OC12COC1CC(O)C1(C)C(=O)C(O)C3=C(C)C(OC(=O)C(O)C(NC(=O)OC(C)(C)C)c4ccccc4)CC(O)(C(OC(=O)c4ccccc4)C21)C3(C)C (configuration not stated) + C#Cc1c(F)ccc2cc(O)cc(-c3ncc4c(N5CC6CCC(C5)N6)nc(OCC56CCCN5CC(F)C6)nc4c3F)c12 | LG0703-F948-PDC complex spheroid viability | % | 22.7 |
| CC1(O)CCCC1n1c(=O)c(C(F)F)cc2cnc(NC3CCN(S(C)(=O)=O)CC3)nc21 (configuration not stated) + C#Cc1c(F)ccc2cc(O)cc(-c3ncc4c(N5CC6CCC(C5)N6)nc(OCC56CCCN5CC(F)C6)nc4c3F)c12 | LG0703-F948-PDC complex spheroid viability | % | 86.7 |
| NC1c2ccccc2OC12CCN(c1cnc3c(N4CCCc5ncccc54)n[nH]c3n1)CC2 (configuration not stated) + C#Cc1c(F)ccc2cc(O)cc(-c3ncc4c(N5CC6CCC(C5)N6)nc(OCC56CCCN5CC(F)C6)nc4c3F)c12 | LG0703-F948-PDC complex spheroid viability | % | 3.17 |

###

Test system: LG0703-F948-PDC complex spheroid viability
Measurement Protocol: Anticancer human tumor LG0703-F948-PDC cell line growth inhibition [RAS];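 further: spheroids exposed to agents for 7 days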
Settings: curve of first compound; second compound 0.1 µM
Text: RAS pathway inhibitors in Combinations in Complex Spheroids A high-throughput screen of multi-cell type tumor spheroids was designed to identify active combinations of RAS pathway inhibitors and targeted small molecules. Complex spheroids include a stromal component modeled by human endothelial cells (HUVEC) and fibroblasts modeled by human mesenchymal stem cells (MSCs). […] Compounds. […] If the clinical Cmax for an agent had not been determined, the highest concentration tested was 10 microM. […]
pIC50: −log10 of the molar value.

| Compound | pIC50 |
| --- | --- |
| CCN1CCN(Cc2ccc(Nc3ncc(F)c(-c4cc(F)c5nc(C)n(C(C)C)c5c4)n3)nc2)CC1 + C#Cc1c(F)ccc2cc(O)cc(-c3ncc4c(N5CC6CCC(C5)N6)nc(OCC56CCCN5CC(F)C6)nc4c3F)c12 | < 6.00 |
| CCN1CCN(Cc2ccc(Nc3ncc(F)c(-c4cc(F)c5nc(C)n(C(C)C)c5c4)n3)nc2)CC1 + C=CC(=O)N1CCN(c2nc(OCC3CCCN3C)nc3c(F)c(-c4nc(N)cc(C)c4C(F)(F)F)c(Cl)cc23)C(C)C1 | < 6.00 |
| NC1c2ccccc2OC12CCN(c1cnc3c(N4CCCc5ncccc54)n[nH]c3n1)CC2 (stereo not drawn) + C#Cc1c(F)ccc2cc(O)cc(-c3ncc4c(N5CC6CCC(C5)N6)nc(OCC56CCCN5CC(F)C6)nc4c3F)c12 | > 7.50 |
